Tgt: wild-type Epidermal Growth Factor Receptor (EGFR) (Homo sapiens (Human))
Sequence (P00533 669-1210): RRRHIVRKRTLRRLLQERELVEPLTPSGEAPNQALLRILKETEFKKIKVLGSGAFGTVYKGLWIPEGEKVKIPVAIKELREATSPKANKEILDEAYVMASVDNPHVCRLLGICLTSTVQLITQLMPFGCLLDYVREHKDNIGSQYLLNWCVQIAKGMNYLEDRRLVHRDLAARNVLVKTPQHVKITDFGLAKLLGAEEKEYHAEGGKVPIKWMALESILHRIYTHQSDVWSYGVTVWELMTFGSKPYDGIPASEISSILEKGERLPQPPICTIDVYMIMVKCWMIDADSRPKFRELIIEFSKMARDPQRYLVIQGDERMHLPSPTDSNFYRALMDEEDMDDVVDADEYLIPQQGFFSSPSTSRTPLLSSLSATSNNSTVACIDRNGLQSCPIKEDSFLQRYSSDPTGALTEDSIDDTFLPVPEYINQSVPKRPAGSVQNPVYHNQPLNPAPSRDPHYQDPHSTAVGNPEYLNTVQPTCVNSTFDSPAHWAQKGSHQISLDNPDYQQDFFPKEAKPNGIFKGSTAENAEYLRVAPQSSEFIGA
Test protocol: WT-EGFR Kinase Assay (TR-FRET, 2 mM ATP)
Format: biochemical
Settings: read-out: EGFR Wildtyp 2 mM ATP IC50 [mol/l] (median), median or individual measurements
Readings of IC50 for the listed compounds

Compound | Assay result
CC(C(=O)Nc1cc(-c2[nH]c3c(c2-c2ccc(F)cc2)C(=O)N(C)CC3CC2CC2)ccn1)c1ccc(F)cc1 (stereo not shown) | > 5.71 µM
COCCNC(=O)c1ccc(CC(=O)Nc2cc(-c3[nH]c4c(c3-c3ccc(F)cc3)C(=O)N(C)CC4)ccn2)cc1 | > 20 µM
CC(C(=O)Nc1cc(-c2[nH]c3c(CC(F)(F)F)cn(C)c(=O)c3c2-c2ccc(F)cc2)ccn1)c1ccc(F)cc1 (single isomer, unassigned; (+)) | > 20 µM
CC1(C)Cc2[nH]c(-c3ccnc(NC(=O)Cc4ccc(F)cc4)c3)c(-c3ccc(F)cc3)c2C(=O)N1 | > 20 µM
Cn1ccc2[nH]c(-c3ccnc(NC(=O)Cc4ccc(F)cc4)c3)c(-c3ccccn3)c2c1=O | > 20 µM
COCCN(C)C(=O)c1ccc(CC(=O)Nc2cc(-c3[nH]c4c(c3-c3ccc(F)cc3)C(=O)N(C)CC4)ccn2)cc1 | > 20 µM

Consider now this further compound.
Field IC50 (entry CN1CC(CC2CC2)c2[nH]c(-c3ccnc(NC(=O)C(CC(F)F)c4ccc(F)cc4)c3)c(-c3ccc(F)cc3)c2C1=O (stereo not shown) ) reads > 20 µM
